Tested on: PC-3
Assay: NCI tumour cell line growth inhibition, 48 h
Activity calls are given as the source filed them. No stated cut-off is given here; in the data, active = GI50 up to about 1.1 µM and inactive = higher.
The reader will find reported GI50 values listed item by item below.
MEASURE: GI50

CCOC(=O)C(=Cn1c(=S)[nH]c2ccc([N+](=O)[O-])cc21)C(=O)OCC = > 100 µM (inactive)
CC(C)CC(N)C(=O)NC(CNC(CCC(N)=O)C(=O)NC(CC(C)C)C(=O)NC(CC(C)C)C(=O)O)Cc1ccc2ccccc2c1 (stereo not given) = > 10 µM (inactive)
COC(=O)C1=C(OC(=O)/C(=C/c2ccccc2)c2ccccc2)C(C(=O)OC)[C@@]2(O)[C@@H](C(=O)OC)[C@H](C)C[C@@H]1[C@@H]2C(=O)OC (stereo not given in full) = > 100 µM (inactive)
CSc1ncnc2c1ncn2CCC#N = > 100 µM (inactive)
CCC(=O)OCN1C(=O)C=CC1=O = 17.1 µM (inactive)
C#CC1=CC(=O)C(OC)=CC1=O = 53.2 µM (inactive)
O=C(c1cc(Br)ccc1O)c1cc(Br)ccc1O = 17.1 µM (inactive)
O=C1C(C(c2ccccc2)N2CCOCC2)=C(O)C(c2ccccc2)N1c1ccccc1 (stereo not given) = > 10 µM (inactive)
O=C1CC2(CCCc3sccc32)C(=O)N1 (stereo not given) = > 100 µM (inactive)
N#C/C=C1\C=CC(O)C(O)C1OC1OC(CO)C(O)C(O)C1O (stereo not given) = > 100 µM (inactive)
O=C(NCCCl)NCc1ccccc1 = > 100 µM (inactive)
CC1=CP(=O)(c2c(C(C)C)cc(C(C)C)cc2C(C)C)CCC1Cl (stereo not given) = 13.4 µM (inactive)
C[C@@H]1OC(=O)C[C@H]2CC(=O)N(CCC3CN(S(=O)(=O)C(F)(F)F)c4ccc(Cc5ccc6c(c5)C(CCN5C[C@H]7[C@@H](CC(=O)O[C@H]7C)CC5=O)CN6S(=O)(=O)C(F)(F)F)cc43)C[C@@H]21 (stereo not given in full) = > 100 µM (inactive)
CC(C)(C)OC(=O)C1CC[C@@H](CC(=O)Oc2ccc([N+](=O)[O-])cc2)N1 (stereo not given in full) = > 100 µM (inactive)
CCCc1cc(=O)oc2c3c(c4c(c12)OC(C)(C)C=C4)O[C@@H](C)[C@H](C)C3=O = 15.5 µM (inactive)
Nc1ncnc2nc(N3CCN(CCO)CC3)[nH]c12 = > 100 µM (inactive)
C/C=C/COc1cc(NC(=S)OC(C)C)ccc1Cl.C/C=C\COc1cc(NC(=S)OC(C)C)ccc1Cl = 16.3 µM (inactive)
CCCNC(=O)Nc1ccc2c(c1)Cc1cc(N(CCCl)CCCl)ccc1-2 = 25.2 µM (inactive)
CCOP(=O)(CCCC(O)CNc1cc(Cl)nc(N)n1)OCC (stereo not given) = > 100 µM (inactive)
O=C(c1ccco1)N1CCN(C(=O)c2ccco2)C1=S = 4.78 µM (inactive)

----------
Test system: LXFL 529
Assay: NCI tumour cell line growth inhibition, 48 h
Activity calls are given as the source filed them. Cut-off read from the data, not from the text of the source: active = GI50 up to about 1.1 µM and inactive = higher.
Outcomes: TRUE (active), FALSE (inactive)

COc1ccc(-c2cc(O)c3cc4c(cc3n2)OCO4)cc1OC = FALSE
C[C@]12CCC(=O)C=C1CC[C@@H]1C2CC[C@]2(C)c3nn(-c4ccccc4)nc3CC12 (stereo not given in full) = FALSE
O=c1c(-c2ccccc2)c2oc(c1-c1ccccc1)CS(=O)(=O)CCC2 = FALSE
C/C(=N\NC(=O)CC(=O)N(C(=O)c1ccc(Cl)cc1)c1ccc(C)cc1)c1ccccc1O = FALSE
N#Cc1c(-c2ccccc2)cc(-c2cccs2)c(C#N)c1N = FALSE
COc1ccc(NC(=O)CSc2nnc(-c3ccc(NC(C)=O)cc3)o2)cc1 = FALSE
COc1cc(C(C)O)c[n+](CCc2c[nH]c3ccccc23)c1 (stereo not given) = FALSE
COC(=O)c1c2c(cc3c1CC1(Cc4cc5c(c(C(C)=O)c4C1)CCC5)C3)CCC2 (stereo not given) = FALSE
CC[N+](C)(C)c1ccc(C(=C2C=CC(=[N+](C)C)C=C2)c2ccc(N(C)C)cc2)cc1 = FALSE
COc1ccc(-c2ccccc2)c2[nH]c3c(c12)CCNC3=O = FALSE
Cc1cccc(NC(=O)/C(=N\NC(C)(C)C)C2NC(=S)NC2=O)c1C (stereo not given) = FALSE
Cc1ccc(S(=O)(=O)N(C=O)N=C2CCN(Cc3ccccc3)CC2)cc1 = FALSE
CC1=C(O)C(=O)C2C(=O)C1C(C)C2c1ccccc1 (stereo not given) = FALSE
O=S(=O)(Sc1ccc(Cl)cc1)c1ccc(Cl)cc1 = FALSE
COc1ccc(/C=C\c2cc(OC)c(OC)c(OC)c2)cc1OC(=O)CC(N)C(=O)O (stereo not given) = TRUE
Cc1cc(NC(=O)NC(=O)c2ccccc2[N+](=O)[O-])ccc1Oc1ncc(Cl)cn1 = TRUE
CC(=O)SCCC1c2[nH]c3ccccc3c2CCN1O (stereo not given) = FALSE
O=[PH](O)c1cccnc1 = FALSE
N#Cc1ccc(C2SCc3nc4ccccc4n32)cc1 (stereo not given) = FALSE
CC(CNCCCNCCNCCCNCO)[N+](=O)[O-] (stereo not given) = FALSE
Cn1c(=O)c(C(=O)NC(=O)OCc2ccccc2)cn(CCSCCOC(=O)NCCCCCCNC(=O)OCCSCCn2cc(C(=O)NC(=O)OCc3ccccc3)c(=O)n(C)c2=O)c1=O = FALSE
CC(=O)NC(CCCCNC(=O)N(CCCl)N=O)C(=O)NCc1ccccc1 (stereo not given) = FALSE
O=C(NO)c1ccc([N+](=O)[O-])cc1 = FALSE
C[N+](C)(C)CC(=O)N/N=C/c1oc(-c2c(O)ccc3ccccc23)c(-c2c(O)ccc3ccccc23)c1[N+](=O)[O-] = FALSE
O=[N+]([O-])c1ccc(-c2cnc3ccccn23)cc1 = FALSE
